Below, each entry is listed with its recorded growth.
Tested on: U251 CNS
Assay: NCI-60 one-dose screen, 48 h (100 = growth as untreated, 0 = no growth, -100 = all killed)
Details: 10 µM unless noted
About 83,000 compounds went through this panel and 20% of them were active in at least one assay; those are over-represented in the sample as a whole.
Enter your answer as a number in %; do not include the unit.

Challenge: Please give the measured growth for this compound: "CCCNc1nc(N(C)O)nc(N(C)O)n1"
Response given: 27.8

Challenge: "Cn1cc(-c2csc(-c3cn(CCCN4CCCCC4)c4ccccc34)n2)c2cccnc21" , same question.
Response given: -90.5

Challenge: "N#Cc1cnc2cc(OC[C@@H](O)CO)c(NC(=O)CC3CSSC3)cc2c1Nc1ccc(OCc2cccc(F)c2)c(Cl)c1" , same question.
Response given: -70.2

Challenge: "Cc1ccc2oc(=O)cc(-c3sc(N4CCCCC4)nc3-c3ccccc3)c2c1" , same question.
Response given: 101

Challenge: "COc1cccc(-c2nn(-c3ccccc3)cc2-c2ccnc(NCCNS(=O)(=O)c3cccc(F)c3)c2)c1" , same question.
Response given: 27

---

Tested on: HCC-2998 colon
Assay: NCI-60 one-dose screen, 48 h
Conditions: 10 µM unless noted
The panel holds about 83,000 compounds, 20% with a hit somewhere; the sample as a whole holds those more often. Activity calls are given as the source filed them. The calls were made as follows: active = growth percent below 10; inactive = the rest.
Could you please pick one outcome from this set? active, inactive

Some solved entries appear below for comparison.
{"molecular.string": "COc1ccc2c(c1)C/C(=C\\c1cc(-c3ccc4c(c3)OCO4)n[nH]1)C2=O", "group.label": "inactive"}
{"molecular.string": "CC1(C)C=CC[C@]2(C)[C@H]3CC[C@@H]4[C@H]5[C@H](C(=O)/C=C/c6cccnc6)CC[C@]5(CO)CC[C@@]4(C)[C@]3(C)CC[C@@H]12", "group.label": "active"}
{"molecular.string": "O=C(N/N=C\\c1c(O)ccc2ccccc12)C1CC1", "group.label": "inactive"}

Now for another entry.
Challenge: I'd appreciate the recorded outcome for "CC(=O)c1c(C)[nH]c(-c2nc3ccc(N4CCN(C)CC4)cc3[nH]2)c1-c1ccc(OCC2CCOCC2)cc1" from this test.
Response given: inactive

---

System: MDA-MB-231 breast
Test: NCI-60 one-dose screen, 48 h
Settings: 10 µM unless noted
About 83,000 compounds went through this panel and 20% of them were active in at least one assay; those are over-represented in the sample as a whole. Activity calls are given as the source filed them. Rule for the calls: active = growth percent below 10; inactive = the rest.
Could you please pick one outcome from this set? YES = active, NO = inactive

Some solved entries appear below for comparison.
{"compound": "O=C1C(=O)c2ccccc2C(O)=C1CCCc1ccc(C2CCCCC2)cc1", "group.label": "NO"}
{"compound": "Nc1ncnc2nc(Br)[nH]c12", "group.label": "NO"}
{"compound": "Cc1ccc(-c2ccc(/C=C(\\C#N)c3nc(-c4ccco4)cs3)o2)cc1", "group.label": "NO"}

Challenge: I'd appreciate the recorded outcome for "COC(c1ccccc1)(c1ccccc1)c1ccccc1" from this test.
Response given: NO

Challenge: "C=C(C)[C@@H]1CC[C@]2(C)CC[C@]3(C)[C@H](CC[C@@H]4[C@@]5(C)CCCNC(C)(C)[C@@H]5CC[C@]43C)[C@@H]12" , same question.
Response given: NO

Challenge: "O=C1/C(=C\c2ccc(Br)o2)SC(=S)N1CCc1ccc(O)cc1" , same question.
Response given: NO

Challenge: "COc1cccc(-c2nn(-c3ccccc3)cc2-c2ccnc(NCCCNS(=O)(=O)c3ccccc3)c2)c1" , same question.
Response given: NO

Challenge: Cc1csc(-c2ccc3c(c2)COC3(CCCN(C)C)c2ccc(F)cc2)c1 (stereo not given) , same question.
Response given: NO

---

Tested on: BT-549 breast
Experiment: NCI-60 one-dose screen, 48 h
Conditions: 10 µM unless noted
This is part of a sample that, as a whole, favours compounds with a hit. Of some 83,000 tested, about 20% had one in any assay. Calls of active or inactive are those of the source. The calls were made as follows: active = growth percent below 10; inactive = the rest.
Could you please pick one outcome from this set? active, inactive

Some solved entries appear below for comparison.
{"compound": "C=C1C(=O)O[C@H]2[C@H]1CC/C(COC(=O)NCc1cc3ccccc3[nH]1)=C\\CC[C@@]1(C)O[C@@H]21", "group.label": "active"}
{"compound": "CN1CCN(c2ccc3nc(-c4[nH]ncc4Nc4ncnc5[nH]ccc45)[nH]c3c2)CC1", "group.label": "active"}
{"compound": "CSc1ccc(N(C)c2nc(C)nc3c2CCC3)cc1", "group.label": "inactive"}
{"compound": "Fc1ccc(NCc2nnc(-c3ccc(Cl)cc3)o2)cc1", "group.label": "inactive"}
{"compound": "O=C1C(=O)N(CCCCn2cc(-c3ccccc3)nn2)c2ccccc21", "group.label": "inactive"}

Challenge: I'd appreciate the recorded outcome for "Nc1c(C(=O)Nc2c(Cl)cccc2Cl)sc2nc3c(cc12)CCCC3" from this test.
Response given: inactive

Challenge: "c1cnc2[nH]cc(-c3csc(-c4cn(CCCN5CCCCC5)c5ccccc45)n3)c2c1" , same question.
Response given: inactive

Challenge: "O=Cc1nc2ccccc2[nH]1" , same question.
Response given: inactive

Challenge: "C[C@@H]1CCCCCCCCC[C@H](O)C(=O)C[C@@H](SC[C@@H](O)C(=O)O)C(=O)O1" , same question.
Response given: inactive

---

Test system: IGROV1 ovarian
Test: NCI-60 one-dose screen, 48 h (100 = growth as untreated, 0 = no growth, -100 = all killed)
Conditions: 10 µM unless noted
This is part of a sample that, as a whole, favours compounds with a hit. Of some 83,000 tested, about 20% had one in any assay.
Criterion: growth strictly under 50%. Met: true (1). Not met: false (0).

Some solved entries appear below for comparison.
{"molecule": "COC(=O)[C@@H]1[C@H]2C[C@H]3c4[nH]c5cc(OC)ccc5c4CCN3C[C@@H]2C[C@H](OC(=O)/C=C/c2ccnc(OC)c2)[C@H]1OC", "group.label": "false (0)"}
{"molecule": "COC(=O)[C@]12CC[C@@H](C)[C@H](C)[C@@H]1C1=CC(=O)[C@@H]3[C@@]4(C)C[C@@H](O)[C@H](O)[C@@]5(C)COC(=C45)C[C@@]3(C)[C@]1(C)CC2", "group.label": "true (1)"}
{"molecule": "c1ccc(CN2C(c3ccccc3)=Nc3ccccc3C2c2c[nH]c3ccccc23)cc1 (stereo not drawn)", "group.label": "true (1)"}
{"molecule": "C/C(Cc1ccc(Cl)cc1)=C(/c1ccc(Cl)cc1)c1ccc(OCCN2CCCC2)cc1", "group.label": "false (0)"}
{"molecule": "COC(=O)[C@]12CC[C@@H](C)[C@H](C)[C@@H]1C1=CC(=O)[C@@H]3[C@@]4(C)C[C@@H](OC(C)=O)[C@H](OC(C)=O)[C@@](C)(COC(C)=O)[C@@H]4C(=O)C[C@@]3(C)[C@]1(C)CC2", "group.label": "false (0)"}
{"molecule": "COc1ccc2c(c1)c(-c1nc(-c3cn(C)c4ncccc34)cs1)cn2CCCN1CCCCC1", "group.label": "false (0)"}
{"molecule": "CC1c2ccccc2N(S(=O)(=O)c2ccccc2)C1C (stereo not drawn)", "group.label": "false (0)"}
{"molecule": "COC(=O)CNc1nc(N(C)O)nc(N(C)O)n1", "group.label": "true (1)"}
{"molecule": "O=C1C(Cl)=C(Nc2ccc(S(=O)(=O)c3ccc(NC4=C(Cl)C(=O)c5ccccc5C4=O)cc3)cc2)C(=O)c2ccccc21", "group.label": "true (1)"}
{"molecule": "Cn1c(=O)c2c(ncn2CCC(=O)Nc2ccc(F)cc2)n(C)c1=O", "group.label": "false (0)"}

Challenge: Is growth of "Brc1ccc2c(c1)c(-c1nc(-c3c[nH]c4ncccc34)cs1)cn2CCCN1CCCCC1" strictly below 50%?
Response given: true (1)

Challenge: "Cc1cc2nc3c4cc(Cl)ccc4n(CCN(C)C)c3nc2cc1C" , same question.
Response given: true (1)

Challenge: N#CC1C(=N)Cc2ccccc2-c2ccccc21 (stereo not drawn) , same question.
Response given: true (1)

Challenge: "Cc1ccnc2c(OCc3ccccc3)cccc12" , same question.
Response given: false (0)

Challenge: "C=C(C)[C@@H]1CC[C@]2(C=O)CC[C@]3(C)[C@H](CC[C@@H]4[C@@]5(C)C/C(=C/c6cccnc6)C(=O)C(C)(C)[C@@H]5CC[C@]43C)[C@@H]12" , same question.
Response given: true (1)

Challenge: "NNC(=O)c1nc2ccccc2[nH]1" , same question.
Response given: false (0)

Challenge: "COc1cc2[nH]c(C(=O)c3cc(OC)c(OC)c(OC)c3)c(N)c2cc1C#CCO" , same question.
Response given: true (1)

Challenge: Nc1c2c(nc3ccc(Cl)cc13)CC(c1ccccc1)CC2=O (stereo not drawn) , same question.
Response given: true (1)
